Provide the recorded phenotypically active for the entries that follow.
Test system: HepG2-CANX-COX4
Experiment: phenotypically active (imaging signature differs from DMSO and reproducible) at any of 0.3-9 uM (binary (1 = active, 0 = inactive)); higher = active
Conditions: treatment time: 24 h
Counter-ions that a name gives are not always drawn.

Note to self: phenotypically active recorded for c1ccc2c(c1)CCCC2C1=NCCN1 (stereo not given) [tetrahydrozoline] was 0 (inactive)

Note to self: phenotypically active recorded for CC(C)c1ccc(CC(=O)N2CCC[C@@H](c3cccc(OC(C)(C)C(=O)O)c3)C2)cc1 was 0 (inactive)

Note to self: phenotypically active recorded for O=S(=O)(c1cccc2cnccc12)N1CCCNCC1 [fasudil] was 1 (active)

Note to self: phenotypically active recorded for NCC(=O)Nc1ccc(-n2nc(C(F)(F)F)cc2-c2ccc3c(ccc4ccccc43)c2)cc1 was 1 (active)

Note to self: phenotypically active recorded for CCc1cccc2c3c([nH]c12)C(CC)(CC(=O)O)OCC3 (stereo not given) [etodolac] was 0 (inactive)

Note to self: phenotypically active recorded for O=C1C=C(O)C(=O)c2ccccc21 [2-Hydroxy-[1,4]naphthoquinone] was 0 (inactive)

Note to self: phenotypically active recorded for CCC(=O)N1CCOc2c(cc(-c3ccc(OC)c(OC)c3)cc2OC[C@H]2CCCN(C)C2)C1 was 1 (active)

Note to self: phenotypically active recorded for CC(=O)c1ccc(S(=O)(=O)NC(=O)NC2CCCCC2)cc1 [acetohexamide] was 0 (inactive)

Note to self: phenotypically active recorded for COc1cc2nc(N3CCN(C(=O)C4COc5ccccc5O4)CC3)nc(N)c2cc1OC (stereo not given) [doxazosin] was 0 (inactive)

Note to self: phenotypically active recorded for CSc1ccc(C(=O)c2[nH]c(=O)[nH]c2C)cc1 [Enoximone] was 0 (inactive)

Note to self: phenotypically active recorded for O=C(c1cccc(Br)c1)N1CCC(N2CCCC2)CC1 [UNC 926 hydrochloride] was 0 (inactive)

Note to self: phenotypically active recorded for CN1C(=O)/C(=C2/Nc3ccccc3/C2=N/O)c2ccc(Br)cc21 was 1 (active)

Note to self: phenotypically active recorded for CCN(Cc1ccncc1)C(=O)C(CO)c1ccccc1 (stereo not given) [tropicamide] was 0 (inactive)

Note to self: phenotypically active recorded for C[C@@H](CN1CCC(n2c(=O)[nH]c3cc(Cl)ccc32)CC1)NC(=O)c1ccc2ccccc2c1 was 1 (active)

Note to self: phenotypically active recorded for CCN[C@H]1C[C@H](C)S(=O)(=O)c2sc(S(N)(=O)=O)cc21 [dorzolamide] was 0 (inactive)

Note to self: phenotypically active recorded for O=C([C@@H](Cc1cccc(C(F)(F)F)c1)NS(=O)(=O)c1cc(F)c2c(c1)CCNC2)N1CCCC1 [(R)-PFI 2 hydrochloride] was 0 (inactive)

Note to self: phenotypically active recorded for NNCCc1ccccc1 [phenelzine] was 0 (inactive)

Note to self: phenotypically active recorded for COc1ccc(N2C(=O)CSC2c2cccc(Br)c2)c(OC)c1 (stereo not given) was 1 (active)

Note to self: phenotypically active recorded for C[N+](C)(C)CCCCCC[N+](C)(C)C [Hexamethonium bromide] was 0 (inactive)

Note to self: phenotypically active recorded for Cc1cnc(NC(=O)C2=C(O)c3ccccc3S(=O)(=O)N2C)s1 [meloxicam] was 0 (inactive)
